From: patent US20190382474A1

# tested.on: T1, recombinant human IL-27 (human, UniProt Q14213 21-229; Q8NEV9 29-243)
# T1 construct: Bought from R&D Systems (Cat. 2526-IL); also called hIL-27; rhIL-27
# T1 sequence 1: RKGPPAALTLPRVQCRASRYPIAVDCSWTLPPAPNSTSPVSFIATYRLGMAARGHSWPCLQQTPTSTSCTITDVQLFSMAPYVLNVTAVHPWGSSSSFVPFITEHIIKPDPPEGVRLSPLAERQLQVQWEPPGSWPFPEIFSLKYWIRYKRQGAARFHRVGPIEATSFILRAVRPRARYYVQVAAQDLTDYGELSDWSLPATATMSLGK
# T1 sequence 2: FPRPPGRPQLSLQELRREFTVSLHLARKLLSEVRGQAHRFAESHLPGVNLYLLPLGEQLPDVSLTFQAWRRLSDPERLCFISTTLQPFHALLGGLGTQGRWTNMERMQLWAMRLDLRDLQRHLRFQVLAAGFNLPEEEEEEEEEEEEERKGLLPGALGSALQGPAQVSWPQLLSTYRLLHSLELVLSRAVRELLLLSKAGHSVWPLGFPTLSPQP
# assay.method.text: SPR (Biacore T200), hIL-27 on CM5 chip, single cycle, 1:1 model
quantity.kind: Relative KD to Ab7.1
Reply with the value as a number alone.

Ab7.9 (antibody, human IgG1, kappa, V domains shown, human IgG1/kappa) VH: EVQLVESGGGLVQPGGSLRLSCAASGFTFTSYSMSWVRQAPGKGLEWVAYISYDGGSAYYPDTVKGRFTISRDNSKNTLYLQMSSLKSEDTAMYYCARHGDYDDDDAMDYWGQGTLVTVSS VL: DIQMTQSPSSLSASVGDRVTITCRASENIYSYLAWYQQKPGKAPKLLVYNAETLTEGVPSRFSGSGSGTDFTLTISSLQPEDFANYYCQHHYGTPLTFGQGTKLEIKR	1.5
Ab7.4 (antibody, human IgG1, kappa, V domains shown, human IgG1/kappa) VH: EVKLVESGGGLVQPGGSLRLSCAASGFTFTSYSMSWVRQAPGKGLEWVAYISYDGGSAYYPDTVKGRFTISRDNSKKTLYLQMSSLKSEDTAMYYCARHGDYDDDDAMDYWGQGTSVTVSS VL: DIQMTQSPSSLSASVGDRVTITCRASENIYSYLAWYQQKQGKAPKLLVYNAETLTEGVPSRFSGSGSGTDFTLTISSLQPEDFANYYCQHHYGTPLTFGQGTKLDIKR	1.2
Ab7.17 (antibody, human IgG1, kappa, V domains shown, human IgG1/kappa) VH: EVQLVESGGGLVQPGGSLRLSCAASGFTFTSYSMSWVRQAPGKGLEWVAYISYDGGSAYYPDTVKGRFTISRDNSKNTLYLQMNSLRAEDTAVYYCARHGDYDDDDAMDYWGQGTLVTVSS VL: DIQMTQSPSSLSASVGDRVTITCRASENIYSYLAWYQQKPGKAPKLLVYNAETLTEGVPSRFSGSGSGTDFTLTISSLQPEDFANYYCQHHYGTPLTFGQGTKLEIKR	1.5

Query :: Annotate the binder Ab7.18 (antibody, human IgG1, kappa, V domains shown, human IgG1/kappa) VH: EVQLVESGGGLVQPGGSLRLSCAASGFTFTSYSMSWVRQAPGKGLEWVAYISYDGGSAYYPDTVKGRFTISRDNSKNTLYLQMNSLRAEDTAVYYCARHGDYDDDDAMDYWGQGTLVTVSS VL: DIQMTQSPSSLSASVGDRVTITCRASENIYSYLAWYQQKPGKAPKLLVYNAETLTEGVPSRFSGSGSGTDFTLTISSLQPEDFATYYCQHHYGTPLTFGQGTKLEIKR with its measured Relative KD to Ab7.1.
Result :: 1.4

Query :: Annotate the binder Ab7.20 (antibody, human IgG1, kappa, V domains shown, human IgG1/kappa) VH: EVQLVESGGGLVQPGGSLRLSCAASGFTFTSYSMSWVRQAPGKGLEWVSYISYDGGSAYYPDTVKGRFTISRDNSKNTLYLQMNSLRAEDTAVYYCARHGDYDDDDAMDYWGQGTLVTVSS VL: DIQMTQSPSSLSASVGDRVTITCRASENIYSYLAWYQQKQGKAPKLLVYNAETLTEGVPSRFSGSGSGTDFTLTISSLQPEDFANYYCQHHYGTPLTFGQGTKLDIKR with its measured Relative KD to Ab7.1.
Result :: 1.4
